test system: ATP; assay: switch fluorescence ratio, 500 uM ATP over buffer (Cy3 cluster intensity, sum of 5 cycles each) (fold (ratio)); higher = stronger signal-on switching upon ATP binding; sequences stand for … in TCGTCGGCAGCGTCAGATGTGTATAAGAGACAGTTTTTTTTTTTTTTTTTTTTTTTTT…TC; conditions: aptamer strand: ATP DNA aptamer (quencher-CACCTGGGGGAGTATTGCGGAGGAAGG + anchor), 100 nM annealed; ATP concentration: 500 uM;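 further: ATP exposure 15 min at 22 °C before imaging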
Label y for high-side switch fluorescence ratio (at or above 1) and n for low-side switch fluorescence ratio (below it).

# sequence.data, target.entity, classification
measured = [
    ("CCTTAAGTGT", "ATP", "y"),
    ("CATCGAGTTC", "ATP", "y"),
    ("CTTTAAAGTT", "ATP", "y"),
    ("GTTGGGGCAG", "ATP", "n"),
    ("TGCCATGTTT", "ATP", "n"),
    ("AAGTTTGTCA", "ATP", "n"),
    ("ACTGTACGCA", "ATP", "y"),
    ("AGTTCGGTGG", "ATP", "n"),
]

Query: Does switch fluorescence ratio meet or surpass 1 for TTTTTTATCT ?
Response: y

Query: Does switch fluorescence ratio meet or surpass 1 for CACTGTAACG ?
Response: y

Query: Does switch fluorescence ratio meet or surpass 1 for AGCATAGAGG ?
Response: y

Query: Does switch fluorescence ratio meet or surpass 1 for GGGAGTGGGC ?
Response: n

Query: Does switch fluorescence ratio meet or surpass 1 for GCAAGATGAT ?
Response: y

Query: Does switch fluorescence ratio meet or surpass 1 for GATTTCGGCG ?
Response: n

Query: Does switch fluorescence ratio meet or surpass 1 for AAGGGGCCCC ?
Response: y

Query: Does switch fluorescence ratio meet or surpass 1 for TTTTATTACT ?
Response: y

Query: Does switch fluorescence ratio meet or surpass 1 for TCAGGGGTTT ?
Response: y
